Tested on: PPARg:RXRa 30nM:10nM, anti-RXR (NR concentration 30 nM, RXRa partner concentration 10 nM)
test-description: PBM binding z-score (relative to random genomic background probes); higher = stronger binding; sequences stand for … in GC…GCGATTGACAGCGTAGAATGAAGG
Think of 1 as a floor: if PBM binding z-score stands on it or above, it is yes (1); beneath it, no (0).

Example entries and their recorded answers appear below.
>>> df
                          biosequence    label
0  CGTCCAAGGTCAGCAGGTCAGTGATAGCGACGTG  yes (1)
1  CCTTACGGGTCACTGACAGGTAATAGCATTTGGA  yes (1)
2  CGTCCAAGGTCAGCAGGTCAGCGAAAGCGACGTG  yes (1)

Dear colleague, could you confirm whether TCTTGTAGATCAATAAAGGTTAAGAAAGTGCGCT has PBM binding z-score at or above 1?
yes (1)

Dear colleague, could you confirm whether CGTCCAATGTCAATGCTAGGTCAGTGAAAGCATT has PBM binding z-score at or above 1?
no (0)

Dear colleague, could you confirm whether CTACCACGGTGAACAAGGTCGTTGATTACTATTC has PBM binding z-score at or above 1?
no (0)

###

System: RARb homodimer (NR concentration 270 nM)
test-description: PBM binding z-score (relative to random genomic background probes); higher = stronger binding; sequences stand for … in GC…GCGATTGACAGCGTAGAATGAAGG
# PBM binding z-score values compiled below
The reply should be a number, written without any unit.

The examples below pair each entry with its known result.
>>> df
                          biosequence  endpoint_value
0  CCGACTGGGGCAGAAAGGTAACCATACCATCCGG           0.454
1  GCTTACGGGCCAAAGGTTATAGCATGAATAGAAT            1.29
2  CCTAGCAGGCAAATCTGGGTCACTCAAGGCTTGA            1.85
3  CGAACTAGGTCAAGCACAGTGAATCTCCGCACGC            2.96
4  CCTATTAATTGACCATAAGGGCAACCGAAGCTCG            1.91

Supply recorded PBM binding z-score for GCTCGGAGGACAAGGTCAGATCTTTGTCCGTAGA here.
3.06

Supply recorded PBM binding z-score for CAAACTAGGTCACAGAGGTCAAAGTACGTGCGTA here.
5.51

Supply recorded PBM binding z-score for AGTATGAGGTTATTAAGATCAGGGAATTGCGGTC here.
1.18

Supply recorded PBM binding z-score for ATATGTAGGTGACATCCGGGTCATTCAGGCTATG here.
2.79

Supply recorded PBM binding z-score for TGAATGAGGATAAAGATCAGGGAACGTGGCGTCG here.
-0.895

Supply recorded PBM binding z-score for ATCGAACGGTCGTGAGGTGAGTATACAGAAAGGC here.
0.679

Supply recorded PBM binding z-score for GCTAGCAGGCCATTTAGGTCACTCAATGACGGGC here.
2.27

###

Tested on: PPARg:RXRa 30nM:10nM, anti-RXR (NR concentration 30 nM, RXRa partner concentration 10 nM)
test-description: PBM binding z-score (relative to random genomic background probes); higher = stronger binding; sequences stand for … in GC…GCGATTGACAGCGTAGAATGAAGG
# PBM binding z-score values compiled below
The reply should be a number, written without any unit.

>>> df
                          biosequence                       experimental_target      recorded_metric  endpoint_value
0  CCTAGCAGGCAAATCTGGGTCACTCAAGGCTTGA  PPARg:RXRa 30nM:10nM, anti-RXR (NR concentration 30 nM, RXRa partner concentration 10 nM)  PBM binding z-score           0.128
1  ATCTCTAGGTGAAGTTCAGTGAAAGATCGATAGA  PPARg:RXRa 30nM:10nM, anti-RXR (NR concentration 30 nM, RXRa partner concentration 10 nM)  PBM binding z-score           0.453

Supply recorded PBM binding z-score for TCATATAGGTAAACGGGTGAAAGTCCGTAAGTTA here.
3.72

Supply recorded PBM binding z-score for CCTAGCAGGCCAGCGTCACTCAAGCATTTCGCTT here.
-1.25

Supply recorded PBM binding z-score for CGTCCAAGGTCAAAGCTAGGTCAGTGAAAGCATT here.
1.86

Supply recorded PBM binding z-score for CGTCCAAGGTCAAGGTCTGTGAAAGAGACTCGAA here.
1.41

###

System: LXRb homodimer (NR concentration 270 nM)
test-description: PBM binding z-score (relative to random genomic background probes); higher = stronger binding; sequences stand for … in GC…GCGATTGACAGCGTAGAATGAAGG
Think of 0.02 as a floor: if PBM binding z-score stands on it or above, it is Y; beneath it, N.

                          biosequence  label
0  CCTATTAGTTGAACATAAGGGCAACCGAAGCTCG      Y
1  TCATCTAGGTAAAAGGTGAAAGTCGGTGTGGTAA      Y
2  AGAATGAGGTTAACATCAGGGAAACAGAATACAT      N
3  CCTACTGGGCCACGATAGGTCATTGATTCAGTGA      N
4  TCTTGTAGATCAACAGGAGGTCAAGAAAGATCGA      Y

Dear colleague, could you confirm whether TAGCCTCGGTCATGCGGGCCAGTATAGTGTCGGC has PBM binding z-score at or above 0.02?
N

Dear colleague, could you confirm whether CCAGACAGGTAAGAAGGTAACTCAGCCTCGATTA has PBM binding z-score at or above 0.02?
N

Dear colleague, could you confirm whether CCTTCTGGGCCAAGGTCATTGATCAGTCAAAGCA has PBM binding z-score at or above 0.02?
N

Dear colleague, could you confirm whether CGAACTAGGTCATTGACAGCACAGTGAATAGTAA has PBM binding z-score at or above 0.02?
Y

Dear colleague, could you confirm whether TACCCTAGGTCAGATCGGGCCAGTATACGCTATA has PBM binding z-score at or above 0.02?
Y

Dear colleague, could you confirm whether CCTCGGAGGATAGAAGGTCAGAGCTGTCCGCTTT has PBM binding z-score at or above 0.02?
N

###

Tested on: VDR:RXRa (NR concentration 270 nM, RXRa partner concentration 90 nM)
test-description: PBM binding z-score (relative to random genomic background probes); higher = stronger binding; sequences stand for … in GC…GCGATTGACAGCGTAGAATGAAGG
# PBM binding z-score values compiled below
The reply should be a number, written without any unit.

The examples below pair each entry with its known result.
In [3]: df
Out[3]:
                          biosequence                       experimental_target      recorded_metric  endpoint_value
0  AGAACTAGGGCACGCTGAGTTGATAGCAGAGTAG  VDR:RXRa (NR concentration 270 nM, RXRa partner concentration 90 nM)  PBM binding z-score           0.303
1  GTACCAAGGTGAATAGGTCATTGATGAGTAGGCG  VDR:RXRa (NR concentration 270 nM, RXRa partner concentration 90 nM)  PBM binding z-score            2.24
2  TCTTGTAGATCAAAGGTGAAGAAAGCCGAAGCCT  VDR:RXRa (NR concentration 270 nM, RXRa partner concentration 90 nM)  PBM binding z-score            0.74
3  TGTCGAAGTTCAAAGGTAACGTAAGTATCCACAC  VDR:RXRa (NR concentration 270 nM, RXRa partner concentration 90 nM)  PBM binding z-score            3.71
4  AATACAGGGTCATCGTAAGCCAGAGTACGCACAG  VDR:RXRa (NR concentration 270 nM, RXRa partner concentration 90 nM)  PBM binding z-score            4.87

Supply recorded PBM binding z-score for ATCTCTGGGTAAAGATAGTTCAGTGAATGCAAAT here.
0.896

Supply recorded PBM binding z-score for AGAATGAGGTTACCAAAGATCAGGCAAACGCTTG here.
1.36

Supply recorded PBM binding z-score for TCTTGCAGATCAATAGAGGTTAAGAAAGTGCGCT here.
1.79

Supply recorded PBM binding z-score for CCTAGCAGGCCAGGGTCATTCAAGCATTTCGCTT here.
3.48

Supply recorded PBM binding z-score for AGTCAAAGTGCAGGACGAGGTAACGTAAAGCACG here.
-0.0485

Supply recorded PBM binding z-score for CGTCAAAGTTTAAGGTAACGTAACAGAAAGCAGC here.
0.3

Supply recorded PBM binding z-score for ACAGACAGGTGAAGAAGGTAACTCAGGCTATCAT here.
0.439

Supply recorded PBM binding z-score for ATATGTAGGTTAGCTGGGGTCATTCGGACTAGGC here.
6.4

Supply recorded PBM binding z-score for CGTCCAAGGTCAGAGAGGCCAGTGAATGCCGAGT here.
5.4
